# TARGET_OR_TEST_SYSTEM: Nucleoli Translocation, AR (gene 367)
# PROTOCOL_SUMMARY: UPITT_HCI_U2OS_AR_TIF2_Nucleoli_Antagonist: University of Pittsburgh U2OS Androgen Receptor-Transcriptional Intermediary Factor 2 (AR-TIF2) Antagonism High Content Imaging Assay for Nucleoli Translocation (AID 2283997)
Records with an inconclusive call do not appear. Activity calls are given as the source filed them. How the source made its calls: active means hit-call score of the fitted dose curve at least 0.9, where 1 is the maximum; inconclusive means response in the unintended direction; inactive means score below 0.9.
Outcome codes: y = active, n = inactive

1. CCCCOC(=O)c1ccc(O)cc1 | n
2. Cc1c2ccccc2c(C)c2c1ccc1ccccc12 | y
3. OCCO | n
4. CCN(Cc1cccnc1)C(=O)c1cccc(Cl)c1[C@]1(C)C(=O)N(Cc2ccc(OC)cc2OC)c2ccc(Cl)cc21 | n
5. COc1cc(C(=O)NC2CCN(C)CC2)ccc1Nc1ncc2c(n1)N(C1CCCC1)CC(F)(F)C(=O)N2C | n
6. O=C(O)c1ccccc1C(=O)OCc1ccccc1 | n
7. Cc1ccc(C(C)C)cc1 | n
8. CCCC(=O)OCCC(C)C | n
9. NC(=O)c1nc(-c2cccc(-c3cc(F)ccc3OCC(F)(F)C(F)(F)F)c2)n[nH]1 | n
10. CN(C[C@@H](CC[N+]12CCC(C3CCCCC3)(CC1)CC2)c1ccc(Cl)c(Cl)c1)C(=O)c1cc(C(F)(F)F)cc(C(F)(F)F)c1 | y
11. CCCCCCCCN(C)CCCCCCCC | n
12. NCc1cccc(C2CCN(C(=O)c3ccc(C#Cc4ccccc4F)o3)CC2)c1 | y
